Reference source for all entries: PubChem BioAssay (NCI)

Tested on: RXF 393 renal
Assay procedure: NCI-60 one-dose screen, 48 h (100 = growth as untreated, 0 = no growth, -100 = all killed)
Run conditions: 10 µM unless noted
Compounds without any hit were thinned out: in the full panel of roughly 83,000, 20% have a hit.
Recorded growth values for a group of compounds are listed next.
Record the value in %, omitting the unit from your answer.

Some compounds with known growth results, for comparison:
Lookup: growth / RXF 393 renal / `Cc1cc(O)c2c(c1)C[C@H]1[C@@H]3CC[C@H]4CC(=O)CC[C@]4(C)[C@H]3CC(=O)[C@]21C`
94.1

Lookup: growth / RXF 393 renal / `Cc1c(C(N)=O)sc2ncn(Cc3ccccc3)c(=O)c12`
106

Lookup: growth / RXF 393 renal / `O=C(Cc1ccccn1)C(F)(F)C(F)(F)C(F)(F)F`
125

Lookup: growth / RXF 393 renal / `O=[P@@]1(c2ccccc2)O[C@H](COCc2ccccc2)[C@@H](OCc2ccccc2)[C@H](OCc2ccccc2)[C@H]1NCc1ccccc1`
28.7

Lookup: growth / RXF 393 renal / Oc1ccc(Cc2ccc(O)c(C3CC(c4ccc(Cl)cc4)=NN3)c2)cc1C1CC(c2ccc(Cl)cc2)=NN1 (stereo not drawn)
66.5

Further cases:
Lookup: growth / RXF 393 renal / `CCC(C)(C)C(=O)O[C@H]1C[C@@H](C)C=C2C=C[C@H](C)[C@H](CC[C@@H]3C[C@@H](O)CC(=O)O3)[C@H]21`
36.1

Lookup: growth / RXF 393 renal / `CC/C(=C\c1ccc(N(C)C)cc1)c1ccncc1`
91.1

Lookup: growth / RXF 393 renal / `Cc1nnc(Nc2ccc(NC(=O)Nc3ccc(Cl)cc3)cc2)c2ccccc12`
-39.7

Lookup: growth / RXF 393 renal / `CCOC(=O)c1c2c(c(C)n1Cc1ccc(OC)cc1)-c1nc(N)ncc1CC2`
116

Lookup: growth / RXF 393 renal / `O=C(Nc1ccc(OCc2nnc(-c3ccccc3)o2)c(F)c1)Nc1ccc(Cl)c(C(F)(F)F)c1`
45.9

Lookup: growth / RXF 393 renal / COc1ccc(C2=NN(C(C)=O)C(c3cc(OC)c(OC)c(OC)c3)C2)cc1 (stereo not drawn)
111

Lookup: growth / RXF 393 renal / `Nc1nc(SCc2ccccc2Cl)c(-c2ccccc2)c(SCc2ccccc2Cl)n1`
115

Lookup: growth / RXF 393 renal / `O=C(Cn1ccnc1)NC(c1ccccc1)c1ccccc1`
104

Lookup: growth / RXF 393 renal / `Nc1ccc2c3c(cccc13)-c1ccccc1-2`
93

Lookup: growth / RXF 393 renal / O=C(/C=C/c1ccccc1)CC(c1ccccc1)N1CCOCC1 (stereo not drawn)
102

Lookup: growth / RXF 393 renal / `CCCCn1c(Cc2ccc(Cl)cc2)nc2cc(OC)c(OC)cc2c1=O`
90

Lookup: growth / RXF 393 renal / `CCN1CCN(c2cc(-c3cn[nH]c3-c3cc(C)cc(OC)c3)nc(-c3cccnc3)n2)CC1`
61.2

Lookup: growth / RXF 393 renal / `Cc1ccccc1-c1cc(Cc2ccccc2O)c(=O)[nH]n1`
140

Lookup: growth / RXF 393 renal / `COC(=O)[C@]12CC[C@@H](C)[C@H](C)[C@@H]1C1=CC[C@@H]3[C@@]4(C)C[C@@H](OC(=O)c5ccco5)[C@H](O)[C@@](C)(CO)[C@@H]4[C@H](O)C[C@@]3(C)[C@]1(C)CC2`
-79

Lookup: growth / RXF 393 renal / `CN(C)c1nc(-c2ccco2)n2nc(-c3ccco3)cc2n1`
106

Lookup: growth / RXF 393 renal / `O=C(Nc1ccncc1)C(=O)c1cn(S(=O)(=O)c2cccc(F)c2)c2ccccc12`
59.9

Lookup: growth / RXF 393 renal / Cc1ccc(C(O)C2=CC(=O)c3ccccc3C2=O)cc1 (stereo not drawn)
109

Lookup: growth / RXF 393 renal / Cc1cc(C)c2c(c1)N1OC(C2)C[C@H]1/C=C/c1ccccc1 (stereo partly drawn)
115

Lookup: growth / RXF 393 renal / `Cc1nn(-c2ccccc2)c(Cl)c1C(CC(=O)c1ccc(Cl)cc1)CC(=O)c1ccc(Cl)cc1`
92.2

Lookup: growth / RXF 393 renal / CO[C@H]1/C=C/O[C@@]2(C)Oc3c(C)c(O)c4c(O)c(c(/C=N/N5CCN(C)CC5)c(O)c4c3C2=O)NC(=O)/C(C)=C\C=C\C(C)[C@H](O)[C@@H](C)[C@@H](O)[C@@H](C)[C@@H](OC(C)=O)[C@@H]1C (stereo partly drawn)
104

Lookup: growth / RXF 393 renal / `CCN(CC)CCCCNc1c2ccccc2[n+](C)c2c1[nH]c1ccccc12`
-55.6
